read-out: Tissue Factor, F3 (gene 2152); assay: BSK_CASM3C_TissueFactor: BioMAP Diversity Plus: CASM3C Assay for Tissue Factor Biomarker Activity (AID 2283052); conditions: primary human coronary artery smooth muscle cells; actives raise or lower the signal;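 note: cell surface tissue factor protein level read by ELISA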
Calls of active or inactive are those of the source. Rule for the calls: active = hit-call score of the fitted dose curve at least 0.9, where 1 is the maximum; inactive = score below 0.9.
readout: AC50

The following compounds have reported results that may help.
compound: CCOP(=S)(OCC)SCn1nnc2ccccc2c1=O
AC50: inactive

compound: COP(=O)(O)OC
AC50: inactive

compound: OCC1CO1 (stereo unspecified)
AC50: inactive

compound: O=[N+]([O-])c1ccccc1
AC50: inactive

compound: CCOP(=S)(Oc1ccc([N+](=O)[O-])cc1)c1ccccc1 (stereo unspecified)
AC50: inactive

Output AC50 of "C=CC(=O)OCC(F)(F)C(F)F"
inactive

Indicate the recorded AC50 value for this compound: "Nc1ccc([N+](=O)[O-])cc1Cl"
inactive

Read the entry CC(O)C(F)(F)C(F)(F)F (stereo unspecified) and write its reported AC50.
inactive

Query AC50 for "CCC(C)(C)c1ccc(O)cc1"
inactive

Report measured AC50; entry is "Cc1ccc(O)cc1C"
inactive

Tell me measured AC50 for "CCOP(=S)(OCC)SCSCC" please.
inactive

Indicate the recorded AC50 value for this compound: O=P(OCC(Br)CBr)(OCC(Br)CBr)OCC(Br)CBr (stereo unspecified)
inactive

Could you please provide reported AC50 for O=C(O)C1C(C(=O)O)C2(Cl)C(Cl)=C(Cl)C1(Cl)C2(Cl)Cl (stereo unspecified) ? Thanks!
inactive

Specify reported AC50 for the compound shown: "N#Cc1c(-c2ccc(Cl)cc2)[nH]c(C(F)(F)F)c1Br"
0.224 µM (active)

Hello, please tell me recorded AC50 for this one: "OCC(F)(F)OC(F)(F)C(F)(F)OC(F)(F)CO"
inactive

Entry "N#Cc1cc([N+](=O)[O-])ccc1N" needs its AC50 filled in; supply it.
inactive

* * *

assay: ATG_ERE_CIS: Attagene CIS-FACTORIAL HepG2 Assay for Estrogen Response Element (ERE) (AID 2282940); details: HepG2 ERE cis-reporter, Attagene RNA transcript; actives raise or lower the signal
The source made the active and inactive calls. How the source made its calls: active means hit-call score of the fitted dose curve at least 0.9, where 1 is the maximum; inactive means score below 0.9.
Field 'call' accepts class 1 (active), class 0 (inactive)

Assay result, entry "CCOP(=S)(OCC)SCSc1ccc(Cl)cc1" — outcome?
class 1

Fill in: this test's call for "CC(=O)CCc1ccc2c(c1)OCO2" is ___
class 0

For "Nc1ccc(Sc2ccc(N)cc2)cc1" , what call appears in the results of this test?
class 1

Give the logged outcome of this assay for the following compound: "Cn1[nH]nnc1=S"
class 0

Status in this test for "Cc1ccc(O)cc1C" ?
class 1

Please indicate how the test categorized CCCCOCC1CO1 (stereo unspecified) .
class 0

Hi team, can someone confirm the assay call for "Cc1ccc2c(c1N)C(=O)c1ccccc1C2=O" ?
class 1

What is the recorded call for this compound in the test? "O=c1[nH]c2ccccc2c(=O)o1"
class 0

Record request — test call for "Nc1ccc2ccccc2c1"
class 0

// param item: "CC(C)(C)c1ccc(O)cc1" ; yields the recorded call
class 1

Hi team, can someone confirm the assay call for "CC(C)Nc1ccc(Nc2ccccc2)cc1" ?
class 0

// param item: "O=C(O)CF" ; yields the recorded call
class 0

Hi team, can someone confirm the assay call for "Nc1ccc(Cl)cc1" ?
class 0

For "CC(C)(C)N(NC(=O)c1ccc(Cl)cc1)C(=O)c1ccccc1" , which call appears in the assay record?
class 0

Which result was noted for this compound in the test: O=C(O)C(F)(OC(F)(F)C(F)(F)C(F)(F)F)C(F)(F)F (stereo unspecified)
class 0

Would you mind telling me which call this test gave "CCN(CC)C1CCCCC1" ?
class 0

All figures here come from PubChem BioAssay (EPA / NIEHS).
